tested on: Wolbachia pipientis; test: Anti-Wolbachia Cell-Based Screen; type: functional; design: scale not given: in the data most compounds retested in dose-response had high values; conditions: 5 µM
In all, about 48,000 compounds went through this assay and about 13,000 (27%) showed an effect of 50% or more. Some of the results follow.
METRIC_NAME: Percent Effect (%)
Respond with the bare value in %.

Answered cases to consult:
- MOLECULE: "Cn1cc2c(n1)C(CNC(=O)Cc1ccsc1)OCC2 (stereo unspecified)"
  METRIC_NAME: "Percent Effect"
  ENDPOINT_VALUE: 6.682
- MOLECULE: "CC(NCc1ccc(OCC(N)=O)cc1)c1ccc(Cl)cc1.Cl (stereo unspecified)"
  METRIC_NAME: "Percent Effect"
  ENDPOINT_VALUE: -2.794
- MOLECULE: "CCS(=O)(=O)NCC1OCCc2cn(CCOC)nc21 (stereo unspecified)"
  METRIC_NAME: "Percent Effect"
  ENDPOINT_VALUE: -0.9126
- MOLECULE: "Cn1cc(C[C@H]2[C@H](N3CCOCC3)CCN2C(=O)c2ccoc2)cn1"
  METRIC_NAME: "Percent Effect"
  ENDPOINT_VALUE: -12.72
- MOLECULE: "COCCn1cc2c(n1)C(CNS(C)(=O)=O)OCC2 (stereo unspecified)"
  METRIC_NAME: "Percent Effect"
  ENDPOINT_VALUE: 95.37

Incoming: Can you look up the measured Percent Effect of "CO[C@H]1CN(C(=O)c2ccc3oc(C)cc3c2)C[C@@]12CCCO2" for me?
Outgoing: 96.35

Incoming: Can you look up the measured Percent Effect of Cc1cc(C(=O)NCC2OCCc3cn(CC4CC4)nc32)c(C)[nH]1 (stereo unspecified) for me?
Outgoing: 99.34

Incoming: Can you look up the measured Percent Effect of COCCn1cc2c(n1)C(CNC(=O)c1cc(C)[nH]c1C)OCC2 (stereo unspecified) for me?
Outgoing: 94.61

Incoming: Can you look up the measured Percent Effect of CS(=O)(=O)NCC1OCCc2cn(CC3CC3)nc21 (stereo unspecified) for me?
Outgoing: -2.199

Incoming: Can you look up the measured Percent Effect of CS(=O)(=O)CC(=O)NCC1OCCc2cn(CC3CC3)nc21 (stereo unspecified) for me?
Outgoing: -2.36

Incoming: Can you look up the measured Percent Effect of "CC[C@@]1(O)CCN(C(=O)c2cccc3cc(C)oc23)C[C@H]1O" for me?
Outgoing: 10.55

----------
Recorded Percent Effect values for a group of molecules are listed next.
tested on: Wolbachia pipientis; assay: Anti-Wolbachia Cell-Based Screen; assay type: functional; design: scale not given: in the data most compounds retested in dose-response had high values; details: 5 µM
The campaign covered roughly 48,000 compounds. About 13,000 (27%) showed an effect of 50% or more. The list shows a part of the results.

Answered cases to consult:
- MOLECULE: "CC(C)(C)C(O)CN1CCN(CC(=O)NC2CCOCC2)CC1 (stereo not given)"
  Percent Effect: "4.367%"
- MOLECULE: "O=S1(=O)COCCN1CCOc1ccccc1"
  Percent Effect: "-11.75%"

Incoming: Can you look up the measured Percent Effect of CSCCC1c2nc[nH]c2CCN1Cc1ccnc2ccccc12 (stereo not given) for me?
Outgoing: 14.89%

Incoming: Can you look up the measured Percent Effect of "Cc1ncsc1CCN(C)C(=O)CN1CC2(CCCC2)CC1=O" for me?
Outgoing: -2.773%

Incoming: Can you look up the measured Percent Effect of "CC(C)n1ccnc1CNC(=O)c1cccc(CCC(C)(C)O)c1" for me?
Outgoing: 1.765%

----------
tested on: Wolbachia pipientis; experiment: Anti-Wolbachia Cell-Based Screen; assay type: functional; design: scale not given: in the data most compounds retested in dose-response had high values; settings: 5 µM
Screen size: about 48,000 compounds; about 13,000 (27%) showed an effect of 50% or more. The list shows a part of the results.
Recorded Percent Effect values for a group of compounds are listed next.
Respond with the bare value in %.

Incoming: Identify the measured Percent Effect of COc1cc(C(=O)N2CCC(O)(CN3CCOCC3)C(C)(C)C2)ccn1 (configuration not stated) for Wolbachia pipientis.
Outgoing: 1.548

Incoming: Identify the measured Percent Effect of "COCCCC(=O)Nc1cc(Cl)c(Cl)cn1" for Wolbachia pipientis.
Outgoing: -20.73

Incoming: Identify the measured Percent Effect of "CN1CCC(Cc2nc(-c3ccnn3C)n(Cc3ccccc3)n2)CC1" for Wolbachia pipientis.
Outgoing: -2.907

Incoming: Identify the measured Percent Effect of CSCC1CCCN1CCc1ccncc1 (configuration not stated) for Wolbachia pipientis.
Outgoing: 7.935

Incoming: Identify the measured Percent Effect of "Cc1ccccc1C(=O)NC[C@@H]1CCN(C(=O)c2cscn2)C[C@H]1O" for Wolbachia pipientis.
Outgoing: 3.097

Incoming: Identify the measured Percent Effect of COCC(=O)N1CCCC1c1ccnc(Nc2cnccn2)n1 (configuration not stated) for Wolbachia pipientis.
Outgoing: -7.486

Incoming: Identify the measured Percent Effect of COc1ncc(CN2CCOC(C)(C(=O)N3CCOCC3)C2)cn1 (configuration not stated) for Wolbachia pipientis.
Outgoing: 124.6

Incoming: Identify the measured Percent Effect of "Cc1noc(C)c1CN1CC2(CCN(C(=O)c3cscn3)CC2)CC1=O" for Wolbachia pipientis.
Outgoing: 4.447

Incoming: Identify the measured Percent Effect of Cc1nc(COCc2cnc3n2CCN(C2CCC2)C3C)cs1.O=C(O)C(F)(F)F (configuration not stated) for Wolbachia pipientis.
Outgoing: 1.124

Incoming: Identify the measured Percent Effect of N#CC(Sc1nnnn1C1CCOCC1)C1CCCCC1 (configuration not stated) for Wolbachia pipientis.
Outgoing: 11.61

Incoming: Identify the measured Percent Effect of "CC(=O)N1CCC(Cc2cccc(-c3ccnn3C)n2)CC1" for Wolbachia pipientis.
Outgoing: 116.5

Incoming: Identify the measured Percent Effect of O=C(CCN1CCCC1c1ccccn1)N1CCc2ccccc2C1 (configuration not stated) for Wolbachia pipientis.
Outgoing: 1

----------
Recorded Percent Effect values for a group of molecules are listed next.
test system: Wolbachia pipientis; experiment: Anti-Wolbachia Cell-Based Screen; type: functional; set-up: scale not given: in the data most compounds retested in dose-response had high values; details: 5 µM
Hit rate of the full screen: of about 48,000 compounds, about 13,000 (27%) showed an effect of 50% or more. This is one part of the list.
Give the figure together with its unit, number first.

Answered cases to consult:
- MOLECULE: "CN1CCN(Cc2cn3c(n2)CN(Cc2ccncc2)CC3)CC1"
  Percent Effect: "100.2%"
- MOLECULE: "O=C(CC1CC1)NCc1cn2c(n1)CN(Cc1cccnc1)CC2.O=C(O)C(F)(F)F.O=C(O)C(F)(F)F"
  Percent Effect: "-16.83%"

Incoming: Can you look up the measured Percent Effect of "CN1CCN(Cc2cn3c(n2)CN(Cc2ccccn2)CC3)CC1" for me?
Outgoing: 100%

Incoming: Can you look up the measured Percent Effect of CC1CCCN1Cc1cccc(C(=O)Nc2ccc3[nH]c(=O)oc3c2)c1 (stereo not given) for me?
Outgoing: 1.459%

----------
tested on: Wolbachia pipientis; assay: Anti-Wolbachia Cell-Based Screen; format: functional; parameters: scale not given: in the data most compounds retested in dose-response had high values; conditions: 5 µM
The campaign covered roughly 48,000 compounds. About 13,000 (27%) showed an effect of 50% or more. Some of the results follow.
Quick rule for you: Percent Effect at 10% or higher means fulfilled, lower means not fulfilled.

// known answers, use as guide
- COMPOUND: "CN1CCC(Cc2cc(Nc3ccccn3)ncn2)CC1"
  TARGET: "Wolbachia pipientis"
  CATEGORY: "fulfilled"
- COMPOUND: "CCC(=O)N1CCC(Cc2cc(Nc3ncccn3)ncn2)CC1"
  TARGET: "Wolbachia pipientis"
  CATEGORY: "fulfilled"
- COMPOUND: "Cc1cc(C)n(C2CCCN(C(=O)CCc3nccs3)C2)n1 (stereo not drawn)"
  TARGET: "Wolbachia pipientis"
  CATEGORY: "fulfilled"
- COMPOUND: "Cc1ncsc1CN1C[C@@H]2COC[C@]2(CNC(=O)c2ccco2)C1.O=C(O)C(F)(F)F"
  TARGET: "Wolbachia pipientis"
  CATEGORY: "not fulfilled"
- COMPOUND: "Cc1cc(C)n(C2CCCN(C(=O)Cc3csc(C)n3)C2)n1 (stereo not drawn)"
  TARGET: "Wolbachia pipientis"
  CATEGORY: "not fulfilled"

Incoming: Identify whether the reported Percent Effect of the following compound is 10% or greater: NC(=O)C(NC1CCN(Cc2ccc(F)cc2)CC1)c1ccccc1 (stereo not drawn)
Outgoing: fulfilled

Incoming: Identify whether the reported Percent Effect of the following compound is 10% or greater: "O=C(NC[C@]1(O)CN(Cc2ncccc2F)C[C@H]1O)c1cc[nH]n1"
Outgoing: fulfilled

Incoming: Identify whether the reported Percent Effect of the following compound is 10% or greater: "C=C(C)COc1cccc(C(=O)N2CCC3(CC2)CN(C)CCN3C)c1"
Outgoing: not fulfilled

Incoming: Identify whether the reported Percent Effect of the following compound is 10% or greater: "O=C(NC[C@]1(O)CN(Cc2ccc(F)cc2)C[C@H]1O)c1ccccn1"
Outgoing: fulfilled

Incoming: Identify whether the reported Percent Effect of the following compound is 10% or greater: O=C(CCc1cnn(-c2ccccc2)c1)N1CCCC(n2cccn2)C1 (stereo not drawn)
Outgoing: not fulfilled

Incoming: Identify whether the reported Percent Effect of the following compound is 10% or greater: "COc1ccc(CNC(=O)c2ccc(Br)cn2)cc1"
Outgoing: not fulfilled
